Measured IC50 (nM), Alternative Pathway, Hemolysis (rabbit erythrocytes, human serum), listed per entry for reference.
TESTED SYSTEM: human complement C3 (human, UniProt P01024 23-1663)
Sequence (P01024 23-1663 limits assumed): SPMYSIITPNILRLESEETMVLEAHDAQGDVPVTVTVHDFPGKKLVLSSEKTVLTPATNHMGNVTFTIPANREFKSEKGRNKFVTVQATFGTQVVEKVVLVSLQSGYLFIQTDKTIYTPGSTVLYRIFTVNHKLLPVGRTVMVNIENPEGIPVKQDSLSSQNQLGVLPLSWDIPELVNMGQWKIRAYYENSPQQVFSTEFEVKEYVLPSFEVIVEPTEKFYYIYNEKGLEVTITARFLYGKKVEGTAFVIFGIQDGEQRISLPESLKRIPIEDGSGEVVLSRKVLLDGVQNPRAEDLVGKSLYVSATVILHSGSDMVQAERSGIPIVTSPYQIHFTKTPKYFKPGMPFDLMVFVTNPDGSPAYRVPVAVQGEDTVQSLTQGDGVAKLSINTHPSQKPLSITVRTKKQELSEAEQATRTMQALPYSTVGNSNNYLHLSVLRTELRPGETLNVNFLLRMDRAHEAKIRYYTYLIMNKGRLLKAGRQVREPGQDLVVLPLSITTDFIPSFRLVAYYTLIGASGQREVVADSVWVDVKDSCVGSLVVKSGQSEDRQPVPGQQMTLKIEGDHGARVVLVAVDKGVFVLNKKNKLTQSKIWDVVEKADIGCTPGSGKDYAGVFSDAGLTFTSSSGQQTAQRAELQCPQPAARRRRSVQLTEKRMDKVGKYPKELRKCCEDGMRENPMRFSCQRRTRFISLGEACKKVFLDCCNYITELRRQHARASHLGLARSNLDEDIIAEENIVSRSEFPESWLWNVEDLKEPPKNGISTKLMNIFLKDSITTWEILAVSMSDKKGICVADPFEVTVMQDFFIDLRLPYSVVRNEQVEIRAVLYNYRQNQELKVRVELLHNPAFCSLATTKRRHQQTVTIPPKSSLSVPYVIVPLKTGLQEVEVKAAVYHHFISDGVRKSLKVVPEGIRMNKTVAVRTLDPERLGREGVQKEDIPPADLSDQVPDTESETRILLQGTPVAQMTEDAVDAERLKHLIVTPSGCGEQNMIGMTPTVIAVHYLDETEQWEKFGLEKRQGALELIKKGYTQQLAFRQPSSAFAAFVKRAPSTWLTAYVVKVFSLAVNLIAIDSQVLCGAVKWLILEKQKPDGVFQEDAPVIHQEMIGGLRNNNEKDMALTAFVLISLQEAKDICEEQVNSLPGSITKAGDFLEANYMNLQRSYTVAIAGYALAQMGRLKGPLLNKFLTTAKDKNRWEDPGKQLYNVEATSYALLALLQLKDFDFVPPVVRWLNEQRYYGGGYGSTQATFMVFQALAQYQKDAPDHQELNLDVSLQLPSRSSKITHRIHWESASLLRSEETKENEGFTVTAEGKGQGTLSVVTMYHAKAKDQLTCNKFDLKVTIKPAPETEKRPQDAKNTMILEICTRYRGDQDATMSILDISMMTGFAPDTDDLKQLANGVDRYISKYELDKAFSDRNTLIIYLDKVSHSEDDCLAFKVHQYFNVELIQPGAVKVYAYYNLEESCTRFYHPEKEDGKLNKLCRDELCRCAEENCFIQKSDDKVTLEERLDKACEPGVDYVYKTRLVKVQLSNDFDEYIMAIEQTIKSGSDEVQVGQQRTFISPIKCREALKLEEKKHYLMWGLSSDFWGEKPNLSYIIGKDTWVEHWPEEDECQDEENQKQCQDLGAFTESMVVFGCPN
ASSAY INFO: cell-based or functional assay
MEASURED PROPERTY: IC50 (nM), Alternative Pathway, Hemolysis (rabbit erythrocytes, human serum)

[[record]]
binder = "Clone I (scFv, also called exemplary antibody of the invention (Clone I); scFv of the invention) scFv: MQLVLTQSPSASASLGASVKLTCTLSSAHKTYTIDWYQQQPEKCPRYLMQLKSDGSYTKGSGIPDRFSGSSSGAERYLTISSLQSEDEADYYCGTEGVGGYVFGGGTKLTVLGGGGGSGGGGSGGGGSGGGGSQVQLVESGGGSVQPGRSLRLSCAASGFTFSNYAMNWVRQAPGKGLEWVAVISYDGSNKYYADSVKGRFTISRDNSKNTLYLQMNSLRAEDTASYYCARAVGYHHARLDPWGCGTSVTVSS"
result = "705 nM"

[[record]]
binder = "Comparative Compound A3 (antibody, human IgG1, kappa, V domains shown) VH: QVQLVQSGAEVKKPGASVKVSCKASGYTFTDFYMDWVRQAPGQRLEWMGYIYPHNGGTTYNQQFTGRVTITVDKSASTAYMELSSLRSEDTAVYYCARRGGFDFDYWGQGTLVTVSS VL: DIQMTQSPSSLSASVGDRVTITCKASENVDTYVSWYQQKPGKAPKLLIYGASNRYTGVPSRFSGSGSGTDFTFTISSLQPEDIATYHCGQSHSYPLTFGQGTKLEIKR"
result = "207 nM"

[[record]]
binder = "Clone III (scFv, also called scFv of the invention) scFv: MQLVLTQSPSASASLGASVKLTCTLSSAHKTYTIDWYQQQPEKCPRYLMQLKSEGSYTKGSGIPDRFSGSSSGAERYLTISSLQSEDEADYYCGTEGVGGYVFGGGTKLTVLGGGGGSGGGGSGGGGSGGGGSQVQLVESGGGSVQPGRSLRLSCAASGFTFSNYAMNWVRQAPGKGLEWVAIINVGGGTNYADSVKGRFTISRDNSKNTLYLQMNSLRAEDTASYYCARAVGYHHARLDPWGCGTSVTVSS"
result = "745 nM"

[[record]]
binder = "Clone II (scFv, also called scFv of the invention) scFv: MQLVLTQSPSASASLGASVKLTCTLSSAHKTYTIDWYQQQPEKCPRYLMQLKSDGSYTKGSGIPDRFSGSSSGAERYLTISSLQSEDEADYYCGTEGVGGYVFGGGTKLTVLGGGGGSGGGGSGGGGSGGGGSQVQLVESGGGSVQPGRSLRLSCAASGFTFSNYAMNWVRQAPGKGLEWVAIINVGGGTNYADSVKGRFTISRDNSKNTLYLQMNSLRAEDTASYYCARAVGYHHARLDPWGCGTSVTVSS"
result = "668 nM"

